target: KRAS G12D (Homo sapiens (Human), UniProt P01116+P62937, G12D); experiment: Ras-Raf (BRAF RBD) disruption / FRET / MOA assay, KRAS G12D; type: biochemical; settings: Ras-Raf disruption/FRET/MOA assay; class symbols; read-out: KRAS G12D FRET data IC50
Sequence (P01116-2 other isoform, or with tags, fused parts or gaps G12D): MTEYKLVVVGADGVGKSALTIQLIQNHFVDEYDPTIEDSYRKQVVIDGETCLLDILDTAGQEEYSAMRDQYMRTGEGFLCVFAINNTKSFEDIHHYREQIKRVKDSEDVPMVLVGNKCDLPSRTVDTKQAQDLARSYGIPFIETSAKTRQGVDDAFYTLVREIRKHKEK
Sequence (P62937 whole entry): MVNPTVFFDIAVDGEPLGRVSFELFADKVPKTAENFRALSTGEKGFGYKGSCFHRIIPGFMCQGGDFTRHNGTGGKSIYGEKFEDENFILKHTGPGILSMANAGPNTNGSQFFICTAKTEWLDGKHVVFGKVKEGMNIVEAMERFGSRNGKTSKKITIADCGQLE

| Molecule | Tgt | IC50 |
| --- | --- | --- |
| C=CC(=O)N1CC[C@@]2(CCN([C@H](C(=O)N[C@H]3Cc4cc(O)cc(c4)-c4ccc5c(c4)c(c(-c4ccccc4CCOC)n5CC)CC(C)(C)COC(=O)[C@@H]4CCCN(N4)C3=O)C(C)C)C2=O)C1 [Example A068] | KRAS G12D (Homo sapiens (Human), UniProt P01116+P62937, G12D) | > 10 µM |
| C=CC(=O)N1CCOC2(CCN(C(=O)N(C)[C@H](C(=O)N[C@H]3Cc4cccc(c4)-c4ccc5c(c4)c(c(-c4cccnc4[C@H](C)OC)n5CC(F)(F)F)CC(C)(C)COC(=O)[C@@H]4CCCN(N4)C3=O)C(C)C)CC2)C1 (atropisomer, axis not shown) [Example A608] | KRAS G12D (Homo sapiens (Human), UniProt P01116+P62937, G12D) | 0.1 to 1 µM |
| C=CC(=O)N1CC2(CCN([C@H](C(=O)N[C@H]3Cc4cc(O)cc(c4)-c4ccc5c(c4)c(c(-c4ccccc4CCOC)n5CC)CC(C)(C)COC(=O)[C@@H]4CCCN(N4)C3=O)C(C)C)C2=O)C1 [Example A031] | KRAS G12D (Homo sapiens (Human), UniProt P01116+P62937, G12D) | > 10 µM |
| C=CC(=O)N1CC[C@H](C(=O)N(C)[C@H](C(=O)N[C@H]2Cc3cc(O)cc(c3)-c3ccc4c(c3)c(c(-c3ccc(C5CCN(C)CC5)cc3)n4CC)CC(C)(C)COC(=O)[C@@H]3CCCN(N3)C2=O)C(C)C)C1 [Example A039] | KRAS G12D (Homo sapiens (Human), UniProt P01116+P62937, G12D) | 1 to 10 µM |
